# Tested on: 349418-098-R-PDC complex spheroid viability
# experimentDescription: Anticancer human tumor 349418-098-R-PDC patient-derived lung adenocarcinoma cell line growth inhibition [RAS]; active = viability on the fitted dose curve at most 10% of control; inactive = the rest
# setupConditions: second compound 0.1 µM; first compound 0.03 µM
Select the matching outcome among 1 = active, 0 = inactive

| molecule | class |
| --- | --- |
| CCc1c2c(nc3ccc(O)cc13)-c1cc3c(c(=O)n1C2)COC(=O)[C@]3(O)CC + C=CC(=O)N1CCN(c2nc(OCC3CCCN3C)nc3c(F)c(-c4nc(N)cc(C)c4C(F)(F)F)c(Cl)cc23)C(C)C1 | 1 |
| CCc1c2c(nc3ccc(O)cc13)-c1cc3c(c(=O)n1C2)COC(=O)[C@]3(O)CC + C#Cc1c(F)ccc2cc(O)cc(-c3ncc4c(N5CC6CCC(C5)N6)nc(OCC56CCCN5CC(F)C6)nc4c3F)c12 | 1 |
| CC1(C)CCC(Nc2ncc(C(F)(F)F)c(-c3c[nH]c4c(P(C)(C)=O)c(C#N)ccc34)n2)CN1 (centres undefined) + C#Cc1c(F)ccc2cc(O)cc(-c3ncc4c(N5CC6CCC(C5)N6)nc(OCC56CCCN5CC(F)C6)nc4c3F)c12 | 0 |

Turning to the following molecule.
Q) Per the assay record, what outcome was assigned to CC1(C)CCC(Nc2ncc(C(F)(F)F)c(-c3c[nH]c4c(P(C)(C)=O)c(C#N)ccc34)n2)CN1 (centres undefined) + C=CC(=O)N1CCN(c2nc(OCC3CCCN3C)nc3c(F)c(-c4nc(N)cc(C)c4C(F)(F)F)c(Cl)cc23)C(C)C1 ?
A) 0

###

# Tested on: 349418-098-R-PDC complex spheroid viability
# experimentDescription: Anticancer human tumor 349418-098-R-PDC cell line growth inhibition [RAS];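 note: spheroids exposed to compound for seven days before viability readout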
# setupConditions: second compound 0.3 µM; first compound 0.316 µM; active compounds read low
endpointLabel: viability, T/C (%)
Your answer should be a plain number; it is taken to be in %.

For orientation, consider the following solved cases.
| compound | recordedValue |
| --- | --- |
| C=CC(=O)N1CCN(c2nc(OCC3CCCN3C)nc3c(F)c(-c4nc(N)cc(C)c4C(F)(F)F)c(Cl)cc23)C(C)C1 (centres undefined) + CCn1c(-c2cccnc2C(C)OC)c2c3cc(ccc31)N1CCOC(CC(NC(=O)C(C(C)C)N(C)C(=O)C3(F)CCN(C(=O)C#CC(C)(C)N(C)C)CC3)C(=O)N3CCCC(N3)C(=O)OCC(C)(C)C2)C1 | 101 |
| C[C@@H](NC(=O)c1ncnc(N)c1Cl)c1ncc(C(=O)Nc2cc(C(F)(F)F)c(Cl)cn2)s1 + CCn1c(-c2cc(N3CCN(C)CC3)cnc2C(C)OC)c2c3cc(ccc31)-c1csc(n1)CC(NC(=O)C1CC1C)C(=O)N1CCCC(N1)C(=O)OCC(C)(C)C2 | 69.9 |
| C[C@@H](NC(=O)c1ncnc(N)c1Cl)c1ncc(C(=O)Nc2cc(C(F)(F)F)c(Cl)cn2)s1 + CCn1c(-c2cccnc2C(C)OC)c2c3cc(ccc31)N1CCOC(CC(NC(=O)C(C(C)C)N(C)C(=O)C3(F)CCN(C(=O)C#CC(C)(C)N(C)C)CC3)C(=O)N3CCCC(N3)C(=O)OCC(C)(C)C2)C1 | 66.5 |

Next item in the queue.
Q) Entry NC1c2ccccc2OC12CCN(c1cnc3c(N4CCCc5ncccc54)n[nH]c3n1)CC2 (centres undefined) + CCn1c(-c2cccnc2C(C)OC)c2c3cc(ccc31)N1CCOC(CC(NC(=O)C(C(C)C)N(C)C(=O)C3(F)CCN(C(=O)C#CC(C)(C)N(C)C)CC3)C(=O)N3CCCC(N3)C(=O)OCC(C)(C)C2)C1 : reported viability, T/C = ?
A) 102

###

The compounds listed here are annotated with their viability, T/C.
# System: 349418-098-R-PDC complex spheroid viability
# experimentDescription: Anticancer human tumor 349418-098-R-PDC cell line growth inhibition [RAS];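 note: spheroids exposed to compound for seven days before viability readout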
# setupConditions: second compound 0.3 µM; first compound 0.316 µM; active compounds read low
Expressed in %, but write only the number.

Illustrative cases are given below, each with its answer.
| compound | target | viability, T/C / % |
| --- | --- | --- |
| CCN1CCN(Cc2ccc(Nc3ncc(F)c(-c4cc(F)c5nc(C)n(C(C)C)c5c4)n3)nc2)CC1 + CCn1c(-c2cccnc2C(C)OC)c2c3cc(ccc31)N1CCOC(CC(NC(=O)C(C(C)C)N(C)C(=O)C3(F)CCN(C(=O)C#CC(C)(C)N(C)C)CC3)C(=O)N3CCCC(N3)C(=O)OCC(C)(C)C2)C1 | 349418-098-R-PDC complex spheroid viability | 19 |
| CC(=O)OC12COC1CC(O)C1(C)C(=O)C(O)C3=C(C)C(OC(=O)C(O)C(NC(=O)OC(C)(C)C)c4ccccc4)CC(O)(C(OC(=O)c4ccccc4)C21)C3(C)C (centres undefined) + CCn1c(-c2cccnc2C(C)OC)c2c3cc(ccc31)N1CCOC(CC(NC(=O)C(C(C)C)N(C)C(=O)C3(F)CCN(C(=O)C#CC(C)(C)N(C)C)CC3)C(=O)N3CCCC(N3)C(=O)OCC(C)(C)C2)C1 | 349418-098-R-PDC complex spheroid viability | 14.7 |
| CC(C)NCC(C(=O)N1CCN(c2ncnc3c2C(C)CC3O)CC1)c1ccc(Cl)cc1 (centres undefined) + CCn1c(-c2cccnc2C(C)OC)c2c3cc(ccc31)N1CCOC(CC(NC(=O)C(C(C)C)N(C)C(=O)C3(F)CCN(C(=O)C#CC(C)(C)N(C)C)CC3)C(=O)N3CCCC(N3)C(=O)OCC(C)(C)C2)C1 | 349418-098-R-PDC complex spheroid viability | 46.5 |

Q) Fill in: viability, T/C of CCN1CCN(Cc2ccc(Nc3ncc(F)c(-c4cc(F)c5nc(C)n(C(C)C)c5c4)n3)nc2)CC1 + CCn1c(-c2cc(N3CCN(C)CC3)cnc2C(C)OC)c2c3cc(ccc31)-c1csc(n1)CC(NC(=O)C1CC1C)C(=O)N1CCCC(N1)C(=O)OCC(C)(C)C2 is ___
A) 22

###

# Test system: 349418-098-R-PDC complex spheroid viability
# experimentDescription: Anticancer human tumor 349418-098-R-PDC cell line growth inhibition [RAS];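 note: spheroids exposed to compound for seven days before viability readout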
# setupConditions: second compound 1 µM; first compound 0.01 µM; active compounds read low
endpointLabel: viability, T/C (%)
Please respond with the number in % and leave the unit unwritten.

Examples with answers:
| compound | viability, T/C, % |
| --- | --- |
| Nc1ccn(C2OC(CO)C(O)C2(F)F)c(=O)n1 (stereo not drawn) + C=CC(=O)N1CCN(c2nc(OCC3CCCN3C)nc3c(F)c(-c4nc(N)cc(C)c4C(F)(F)F)c(Cl)cc23)C(C)C1 | 6.24 |
| C=CC(=O)Nc1cc(Nc2nccc(-c3cn(C)c4ccccc34)n2)c(OC)cc1N(C)CCN(C)C + C=CC(=O)N1CCN(c2nc(OCC3CCCN3C)nc3c(F)c(-c4nc(N)cc(C)c4C(F)(F)F)c(Cl)cc23)C(C)C1 | 96.9 |

Now for a further compound.
Q) Name the reported viability, T/C value associated with the compound Nc1ccn(C2OC(CO)C(O)C2(F)F)c(=O)n1 (stereo not drawn) + C#Cc1c(F)ccc2cc(O)cc(-c3ncc4c(N5CC6CCC(C5)N6)nc(OCC56CCCN5CC(F)C6)nc4c3F)c12
A) 7.84

###

# Tested on: 349418-098-R-PDC complex spheroid viability
# experimentDescription: Anticancer human tumor 349418-098-R-PDC cell line growth inhibition [RAS]; active = viability on the fitted dose curve at most 10% of control; inactive = the rest;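 note: spheroids exposed to compound for seven days before viability readout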
# setupConditions: second compound 0.00949 µM; first compound 0.1 µM
Write down one outcome, taken from active, inactive

| compound | target | class |
| --- | --- | --- |
| CCN1CCN(Cc2ccc(Nc3ncc(F)c(-c4cc(F)c5nc(C)n(C(C)C)c5c4)n3)nc2)CC1 + CCn1c(-c2cc(N3CCN(C)CC3)cnc2C(C)OC)c2c3cc(ccc31)-c1csc(n1)CC(NC(=O)C1CC1C)C(=O)N1CCCC(N1)C(=O)OCC(C)(C)C2 | 349418-098-R-PDC complex spheroid viability | inactive |
| CC(Nc1ccc2c(c1)OCCn1cc(N3C(=O)OCC3C(F)F)nc1-2)C(N)=O (stereo unspecified) + CCn1c(-c2cc(N3CCN(C)CC3)cnc2C(C)OC)c2c3cc(ccc31)-c1csc(n1)CC(NC(=O)C1CC1C)C(=O)N1CCCC(N1)C(=O)OCC(C)(C)C2 | 349418-098-R-PDC complex spheroid viability | inactive |
| CC(=O)OC12COC1CC(O)C1(C)C(=O)C(O)C3=C(C)C(OC(=O)C(O)C(NC(=O)OC(C)(C)C)c4ccccc4)CC(O)(C(OC(=O)c4ccccc4)C21)C3(C)C (stereo unspecified) + CCn1c(-c2cc(N3CCN(C)CC3)cnc2C(C)OC)c2c3cc(ccc31)-c1csc(n1)CC(NC(=O)C1CC1C)C(=O)N1CCCC(N1)C(=O)OCC(C)(C)C2 | 349418-098-R-PDC complex spheroid viability | inactive |

Q) Any idea what this test logged for CC1(O)CCCC1n1c(=O)c(C(F)F)cc2cnc(NC3CCN(S(C)(=O)=O)CC3)nc21 (stereo unspecified) + CCn1c(-c2cc(N3CCN(C)CC3)cnc2C(C)OC)c2c3cc(ccc31)-c1csc(n1)CC(NC(=O)C1CC1C)C(=O)N1CCCC(N1)C(=O)OCC(C)(C)C2 ?
A) inactive

Q) Assay result, entry C=CC(=O)N1CCN(c2nc(OCC3CCCN3C)nc3c(F)c(-c4nc(N)cc(C)c4C(F)(F)F)c(Cl)cc23)C(C)C1 (stereo unspecified) + CCn1c(-c2cc(N3CCN(C)CC3)cnc2C(C)OC)c2c3cc(ccc31)-c1csc(n1)CC(NC(=O)C1CC1C)C(=O)N1CCCC(N1)C(=O)OCC(C)(C)C2 — outcome?
A) inactive
